# System Name: TESK1 (Homo sapiens)
# Sequence (Q15569 whole entry): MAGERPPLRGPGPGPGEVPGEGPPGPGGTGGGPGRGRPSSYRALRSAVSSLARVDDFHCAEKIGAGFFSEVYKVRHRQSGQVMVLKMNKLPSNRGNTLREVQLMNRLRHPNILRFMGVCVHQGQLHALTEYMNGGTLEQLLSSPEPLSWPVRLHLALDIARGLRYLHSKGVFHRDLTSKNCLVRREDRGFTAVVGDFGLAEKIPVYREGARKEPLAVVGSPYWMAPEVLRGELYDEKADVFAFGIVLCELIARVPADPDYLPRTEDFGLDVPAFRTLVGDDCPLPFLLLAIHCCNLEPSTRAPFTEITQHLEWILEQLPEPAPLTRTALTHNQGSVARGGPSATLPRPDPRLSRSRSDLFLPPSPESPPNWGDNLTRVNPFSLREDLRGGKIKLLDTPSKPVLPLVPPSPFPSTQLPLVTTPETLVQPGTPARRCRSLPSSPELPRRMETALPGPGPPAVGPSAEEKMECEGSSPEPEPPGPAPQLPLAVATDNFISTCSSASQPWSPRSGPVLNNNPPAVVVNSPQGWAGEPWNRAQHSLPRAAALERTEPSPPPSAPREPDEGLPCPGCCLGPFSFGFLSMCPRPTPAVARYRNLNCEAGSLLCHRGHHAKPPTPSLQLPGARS
# Protocol Description: biochemical
# Design: species or system HEK293/K-562/placenta mixed human extract; Kinobeads chemoproteomic competition binding, quantified by TMT LC-MS/MS, dose response up to 20 uM
Measurement Name: IC50

Known value: TESK1 (Homo sapiens) IC50 of the molecule COc1ccccc1-c1n[nH]c2nc(N[C@H]3CC[C@H](NS(=O)(=O)CCC(F)(F)F)CC3)nc(OC)c12 equals ≥ 20 µM

###

# System Name: UniProt Q13627
# Protocol Description: biochemical
# Set-up: species or system HEK293/K-562/placenta mixed human extract; Kinobeads chemoproteomic competition binding, quantified by TMT LC-MS/MS, dose response up to 20 uM
Measurement Name: IC50

Log: UniProt Q13627, compound COc1ccccc1-c1n[nH]c2nc(N[C@H]3CC[C@H](NS(=O)(=O)CCC(F)(F)F)CC3)nc(OC)c12 , IC50 = ≥ 20 µM
